# system_name: Human KIR3DL3 (human, UniProt Q8N743 26-410)
# Sequence (Q8N743 26-410 H321N limits assumed): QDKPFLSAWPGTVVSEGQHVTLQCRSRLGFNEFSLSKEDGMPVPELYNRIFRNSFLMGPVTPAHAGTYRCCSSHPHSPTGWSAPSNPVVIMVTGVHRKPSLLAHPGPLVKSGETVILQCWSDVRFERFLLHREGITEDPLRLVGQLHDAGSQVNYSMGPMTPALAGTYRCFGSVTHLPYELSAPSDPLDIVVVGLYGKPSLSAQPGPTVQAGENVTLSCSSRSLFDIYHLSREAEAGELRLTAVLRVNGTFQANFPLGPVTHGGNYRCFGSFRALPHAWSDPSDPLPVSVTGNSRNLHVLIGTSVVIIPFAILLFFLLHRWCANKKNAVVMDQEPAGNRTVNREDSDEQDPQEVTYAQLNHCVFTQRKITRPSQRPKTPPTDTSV
# assay_notes: cell-based or functional assay
endpoint_name: Jurkat IL-2 Luciferase Activation, EC50 (µg/mL)
Your answer is read as µg/mL, so omit the unit and give the number.

Exam item: Look at this binder and give its reported Jurkat IL-2 Luciferase Activation, EC50. KIR3DL3 mAb 574.2.1G7.9.9 (antibody, IgG2b, V domains shown, Mouse hybridoma antibody, IgG2b; only variable domains given; also called AVS-3701) VH: ELKLEESGGGLVQPGGSMKLSCVASGFTFSNYWMNWVRQSPEKGLEWIAEIRLKSNNYATHYAESVKGRFTISRDDSKSSVYLQMNNLRAEDTGIFYCTPFYGSSFPYWGQGTLVTVSA VL: DIQMTQTTSSLSASLGDRVTISCRASQDISNYLNWYQQKPDGTVKLLIYYTSILQLGVPPRFSGSGSGTDYSLTISNLEQEDIATYFCQQGNTLPFTFGAGTKVELK
Marked response: 0.37

These data points were gathered from patent US20250388702A1.
